- subject_of_test: Thymidine phosphorylase (Escherichia coli (strain SMS-3-5 / SECEC))
- Sequence (B1LEI7 whole entry): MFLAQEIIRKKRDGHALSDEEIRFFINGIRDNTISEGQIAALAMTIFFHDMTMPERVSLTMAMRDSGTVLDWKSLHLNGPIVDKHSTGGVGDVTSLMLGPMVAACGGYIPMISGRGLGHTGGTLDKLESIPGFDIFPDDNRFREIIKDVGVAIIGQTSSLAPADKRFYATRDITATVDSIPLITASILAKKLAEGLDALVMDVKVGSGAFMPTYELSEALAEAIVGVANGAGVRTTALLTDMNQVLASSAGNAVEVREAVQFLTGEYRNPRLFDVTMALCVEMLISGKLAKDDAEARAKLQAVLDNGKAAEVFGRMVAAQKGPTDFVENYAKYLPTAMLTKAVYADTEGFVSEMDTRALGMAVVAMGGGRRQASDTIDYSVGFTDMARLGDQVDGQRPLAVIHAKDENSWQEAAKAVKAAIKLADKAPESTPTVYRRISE
- test_description: Thymidine Phosphorylase Inhibition Assay
- condition_info: pH 7
readout_label: IC50 (µM)

O=c1[nH]c(-c2ccc(O)cc2)nc2ccccc12: 234
O=c1[nH]c(-c2cccc(O)c2)nc2ccccc12: 295
O=c1[nH]c(-c2ccc(O)c(O)c2)nc2ccccc12: 42.9
O=c1[nH]c(-c2cc(O)ccc2O)nc2ccccc12: 59.5
COc1ccc(-c2nc3ccccc3c(=O)[nH]2)cc1O: 169
CCOc1cc(-c2nc3ccccc3c(=O)[nH]2)ccc1O: 256
